# system_name: JAK1 (Homo sapiens (Human), UniProt P23458)
# Sequence (P23458 whole entry): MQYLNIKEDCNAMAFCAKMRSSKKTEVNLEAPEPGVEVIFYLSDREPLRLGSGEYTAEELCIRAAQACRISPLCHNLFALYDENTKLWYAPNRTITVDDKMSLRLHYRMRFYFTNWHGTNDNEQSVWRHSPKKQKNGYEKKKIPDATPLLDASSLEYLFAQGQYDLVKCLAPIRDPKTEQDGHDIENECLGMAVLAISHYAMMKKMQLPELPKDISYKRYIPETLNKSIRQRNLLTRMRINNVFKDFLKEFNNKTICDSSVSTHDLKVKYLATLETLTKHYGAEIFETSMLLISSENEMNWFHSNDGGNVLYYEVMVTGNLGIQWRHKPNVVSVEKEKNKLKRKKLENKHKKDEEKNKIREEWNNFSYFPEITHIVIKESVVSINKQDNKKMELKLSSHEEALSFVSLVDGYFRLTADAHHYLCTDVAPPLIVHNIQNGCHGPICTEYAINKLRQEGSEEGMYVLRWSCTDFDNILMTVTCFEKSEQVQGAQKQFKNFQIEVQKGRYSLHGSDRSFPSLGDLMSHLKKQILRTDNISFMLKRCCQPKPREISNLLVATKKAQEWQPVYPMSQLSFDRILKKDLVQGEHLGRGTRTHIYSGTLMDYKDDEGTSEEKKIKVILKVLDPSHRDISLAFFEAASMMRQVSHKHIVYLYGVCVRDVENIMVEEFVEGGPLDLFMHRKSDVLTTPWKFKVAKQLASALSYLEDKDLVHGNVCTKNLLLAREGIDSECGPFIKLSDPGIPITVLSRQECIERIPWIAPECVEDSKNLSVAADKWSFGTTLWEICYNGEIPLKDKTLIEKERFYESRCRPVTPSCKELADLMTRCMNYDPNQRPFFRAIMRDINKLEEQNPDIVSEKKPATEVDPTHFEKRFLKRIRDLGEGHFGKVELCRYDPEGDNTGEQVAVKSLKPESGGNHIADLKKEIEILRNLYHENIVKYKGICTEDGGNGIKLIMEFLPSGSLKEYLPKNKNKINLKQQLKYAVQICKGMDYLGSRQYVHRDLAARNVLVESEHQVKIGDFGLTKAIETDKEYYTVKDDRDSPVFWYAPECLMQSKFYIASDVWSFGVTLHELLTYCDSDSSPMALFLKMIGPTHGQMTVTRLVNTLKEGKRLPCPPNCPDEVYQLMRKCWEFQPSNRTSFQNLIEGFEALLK
# test_method_notes: LanthaScreen JAK biochemical assay (JAK1)
# assay_setup: vs Examples 1, 7, 13, 6 respectively
readout_kind: fold less potent than the corresponding compound of the invention in the enzyme assay (fold)
Numbers only, in fold.

[[record]]
compound = "CCc1cc(O)c(F)cc1-c1ccc2c(-c3nc4c([nH]3)CCN(C3CC(C)C3)C4)n[nH]c2c1 (stereo not shown)"
system_name = "JAK1 (Homo sapiens (Human), UniProt P23458)"
unit_of_measure = "fold"
endpoint_value = 2


# return fold less potent than the corresponding compound of the invention in the enzyme assay for each item in the list
1. CCc1cc(O)c(F)cc1-c1ccc2c(-c3nc4c([nH]3)CCN(C3CCC(C)CC3)C4)n[nH]c2c1 (stereo not shown)
2. CCc1cc(O)c(F)cc1-c1ccc2c(-c3nc4c([nH]3)CCN(CC3CCCOC3)C4)n[nH]c2c1 (stereo not shown)
3. CCc1cc(O)c(F)cc1-c1ccc2c(-c3nc4c([nH]3)CCN(CCC(C)C)C4)n[nH]c2c1

Response given:
1. 2.5
2. 6
3. 3
